# Tested on: Staphylococcus aureus SAU.278, Daptomycin resistant mutant (D10)
# Assay type: cell-based
# conditionNotes: MHBc with 50 mg/L calcium, 18-20 hours at 37° C.
reportedProperty: Sa278 MIC

• CCc1ccc(CCC(=O)N[C@@H](Cc2c[nH]c3ccccc23)C(=O)N[C@H](CC(N)=O)C(=O)N[C@@H](CC(=O)O)C(=O)N[C@@H]2C(=O)NCC(=O)N[C@@H](CCCN)C(=O)N[C@@H](CC(=O)O)C(=O)N[C@H](C)C(=O)N[C@@H](CC(=O)O)C(=O)NCC(=O)N[C@H](CO)C(=O)N[C@@H]([C@H](C)CC(=O)O)C(=O)N[C@@H](CC(=O)c3ccccc3N)C(=O)O[C@@H]2C)cc1 = >32 mg/L
• C[C@H](CC(=O)O)[C@@H]1NC(=O)[C@@H](CO)NC(=O)CNC(=O)[C@H](CC(=O)O)NC(=O)[C@@H](C)NC(=O)[C@H](CC(=O)O)NC(=O)[C@H](CCCN)NC(=O)CNC(=O)[C@@H](NC(=O)[C@H](CC(=O)O)NC(=O)[C@@H](CC(N)=O)NC(=O)[C@H](Cc2c[nH]c3ccccc23)NC(=O)Cc2ccc(-c3ccc(Cl)cc3)cc2)[C@@H](C)OC(=O)[C@H](CC(=O)c2ccccc2N)NC1=O = 16 mg/L
• CCCCCCCc1csc(C(=O)N[C@@H](Cc2c[nH]c3ccccc23)C(=O)N[C@H](CC(N)=O)C(=O)N[C@@H](CC(=O)O)C(=O)N[C@@H]2C(=O)NCC(=O)N[C@@H](CCCN)C(=O)N[C@@H](CC(=O)O)C(=O)N[C@H](C)C(=O)N[C@@H](CC(=O)O)C(=O)NCC(=O)N[C@H](CO)C(=O)N[C@@H]([C@H](C)CC(=O)O)C(=O)N[C@@H](CC(=O)c3ccccc3N)C(=O)O[C@@H]2C)c1 = 1 mg/L

Attention now turns to another entry.
Q: Supply measured Sa278 MIC of C[C@H](CC(=O)O)[C@@H]1NC(=O)[C@@H](CO)NC(=O)CNC(=O)[C@H](CC(=O)O)NC(=O)[C@@H](C)NC(=O)[C@H](CC(=O)O)NC(=O)[C@H](CCCN)NC(=O)CNC(=O)[C@@H](NC(=O)[C@H](CC(=O)O)NC(=O)[C@@H](CC(N)=O)NC(=O)[C@H](Cc2c[nH]c3ccccc23)NC(=O)c2ccc(-c3ccc(-c4ccccc4)cc3)cc2)[C@@H](C)OC(=O)[C@H](CC(=O)c2ccccc2N)NC1=O in your reply.
Ans: 0.125 mg/L

FYI, the data here is from patent US20150337013A1.
